Target: T1, biotinylated α-cobratoxin from Naja kaouthia (Naja kaouthia, biotin through amine coupling (NHS-PEG4-Biotin), sites not stated)
T1 chain: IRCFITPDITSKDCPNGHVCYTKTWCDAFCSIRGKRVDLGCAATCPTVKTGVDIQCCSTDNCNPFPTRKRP
Assay: BLI
Settings: both partners purified
endpoint: kon (M⁻¹ s⁻¹)
Reply numerically in M⁻¹ s⁻¹, unit not repeated.

Enquiry: Requested field: kon. Item: D11_Y49A scFv (scFv, V domains shown, source: E. coli BL21(DE3)) VH: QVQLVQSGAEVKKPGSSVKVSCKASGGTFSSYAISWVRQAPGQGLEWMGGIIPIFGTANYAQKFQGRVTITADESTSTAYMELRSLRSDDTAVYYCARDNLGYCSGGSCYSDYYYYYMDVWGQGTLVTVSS VL: NFMLTQPRSVSESPGKTVTISCTRSSGSIGSDYVHWYQQRPGSSPTTVIAEDNQRPSGVPDRFSGSIDSSSNSASLTISGLKTEDEADYYCQSYDRSNHEVVFGGGTKLTVL
Return: 26200

Enquiry: Requested field: kon. Item: A01 scFv (scFv, V domains shown) VH: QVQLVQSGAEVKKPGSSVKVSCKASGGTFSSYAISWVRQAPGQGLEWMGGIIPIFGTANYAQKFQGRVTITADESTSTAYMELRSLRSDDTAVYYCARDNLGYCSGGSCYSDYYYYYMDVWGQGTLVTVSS VL: SYELTQPPSVSVAPGRTATITCEGDNIGQQIVHWYQQKPGQAPVAVISSDSDRPSGIPERFSGSNSGNTATLTISRVEAGDEADYYCQVWDSGSDHVVFGGGTKVTVL
Return: 43200

Enquiry: Requested field: kon. Item: D11 scFv (scFv, V domains shown) VH: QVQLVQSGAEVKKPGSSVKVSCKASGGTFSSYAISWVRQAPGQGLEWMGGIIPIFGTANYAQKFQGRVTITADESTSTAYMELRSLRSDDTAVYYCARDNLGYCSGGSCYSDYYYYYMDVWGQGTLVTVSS VL: NFMLTQPRSVSESPGKTVTISCTRSSGSIGSDYVHWYQQRPGSSPTTVIYEDNQRPSGVPDRFSGSIDSSSNSASLTISGLKTEDEADYYCQSYDRSNHEVVFGGGTKLTVL
Return: 39900

Enquiry: Requested field: kon. Item: D11_E50A scFv (scFv, V domains shown, source: E. coli BL21(DE3)) VH: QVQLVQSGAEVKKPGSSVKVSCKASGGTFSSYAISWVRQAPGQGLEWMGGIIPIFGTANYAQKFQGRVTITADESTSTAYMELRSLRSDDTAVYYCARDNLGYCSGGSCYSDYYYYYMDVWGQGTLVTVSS VL: NFMLTQPRSVSESPGKTVTISCTRSSGSIGSDYVHWYQQRPGSSPTTVIYADNQRPSGVPDRFSGSIDSSSNSASLTISGLKTEDEADYYCQSYDRSNHEVVFGGGTKLTVL
Return: 29700

Enquiry: Requested field: kon. Item: D11_Y49S scFv (scFv, V domains shown, source: E. coli BL21(DE3)) VH: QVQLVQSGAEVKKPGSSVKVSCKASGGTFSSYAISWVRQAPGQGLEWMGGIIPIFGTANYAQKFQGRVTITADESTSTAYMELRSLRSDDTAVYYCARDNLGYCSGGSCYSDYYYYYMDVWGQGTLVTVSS VL: NFMLTQPRSVSESPGKTVTISCTRSSGSIGSDYVHWYQQRPGSSPTTVISEDNQRPSGVPDRFSGSIDSSSNSASLTISGLKTEDEADYYCQSYDRSNHEVVFGGGTKLTVL
Return: 40000
